All figures here come from PubChem BioAssay (NCI).

- System: CCRF-CEM leukemia
- ASSAY_PROCEDURE: NCI tumour cell line growth inhibition, 48 h
MEASURED_ATTRIBUTE: TGI

# annotated cases, reported TGI shown
Entry under review: CN1CCN(c2ccc(-c3cnc4c(-c5csc6ccccc56)cnn4c3)cc2)CC1 . Reported TGI?
> 15 µM

Which TGI value is on record for Cc1cc(N(CCC#N)CCC#N)ccc1/C=C(\NC(=O)/C=C/c1ccccc1)NC(=O)Nc1ccc(Cl)cc1 ?
> 100 µM

Find the recorded TGI belonging to CC(C)(C)NC(NC(C)(C)C)=C(C(Cl)=C(Cl)Cl)[N+](=O)[O-] and report it.
> 100 µM

Further cases:
Which TGI reading was recorded for the compound COc1cc(NN=C(c2ccc(O)cc2)c2ccc(O)cc2)c([N+](=O)[O-])cc1[N+](=O)[O-] ?
> 100 µM

Look up TGI: Cc1ccc(S(=O)(=O)Oc2ccc3c4c(c(=O)oc3c2)CCCCC4)cc1
> 100 µM

Given the compound COC1(OC)N=C(N)C2(C#N)C(C)CC(=O)N(N(C)C)C12C#N (configuration not stated) , what is its reported TGI?
> 100 µM

Value lookup for TGI; key = CCOP(=O)(CC(=O)C1=C(O)C(CCCNC(=O)OC(C)(C)C)N(Cc2ccc(OC)c(OC)c2)C1=O)OCC (configuration not stated)
> 100 µM

Entry COc1ccc(-c2cc(-c3ccc(Nc4ccnc5cc(C(F)(F)F)ccc45)cc3)[nH]c(=O)c2C#N)c2ccccc12 has what TGI?
> 56.8 µM

###

- Test system: MDA-MB-231 breast
- ASSAY_PROCEDURE: NCI tumour cell line growth inhibition, 48 h
Reported TGI values are given for each entry in this list.
Unit µM implied. Number only.

Endpoint output: TGI of COC(=O)C1OC(O[C@H]2CC[C@]3(C)[C@H]4CC=C5[C@@H]6CC(C)(C)CC[C@]6(C(=O)OC)[C@H](O)C[C@@]5(C)[C@]4(C)CC[C@H]3C2(C)C)C(O)C(O)C1O (some centres undefined) . Value?
21.8

Now consider the entry below.
// lookup TGI for O=C1CC(Br)c2c(Cl)sc(Cl)c21 (centres undefined)
22.7

###

- Test system: U251 CNS
- ASSAY_PROCEDURE: NCI tumour cell line growth inhibition, 48 h
Label rule, in plain words: TGI of 10 µM and up is true (1), under 10 µM is false (0).

Solved entries:
Please check the record O=[N+]([O-])CC(SCc1ccccc1)c1ccc2c(c1)OCO2 (stereo unspecified) and state if its TGI is at or above 10 µM.
true (1)

Say whether CC1=C(C(=O)Nc2ccccc2C)C(c2ccc([N+](=O)[O-])cc2)C(C(=O)Nc2ccccc2C)=C(C)N1 shows TGI of 10 µM or more.
true (1)

Hello, I need to know if CCOc1ccccc1NC(=O)CCc1nnc2s/c(=C\CCc3ccccc3)c(=O)n12 has measured TGI not below 10 µM. Thanks!
true (1)

Form field: TGI at least 10 µM? Entry: [Cl-].[Rh+3].c1ccc(-c2ccnc3c2ccc2c(-c4ccccc4)ccnc23)cc1.c1ccc(-c2ccnc3c2ccc2c(-c4ccccc4)ccnc23)cc1.c1ccc(-c2ccnc3c2ccc2c(-c4ccccc4)ccnc23)cc1
true (1)

# check: TGI of CC(=O)Oc1ccn2nc(C)c(Br)c2c1Br is greater than or equal to 10 µM
true (1)

Next:
Is TGI at least 10 µM? Consider C[C@@]12CC[C@H]3[C@@H]4CCC(=O)N[C@@]4(C)CC[C@@H]3[C@@]1(C)CC[C@H](OC(=O)Cc1ccc(N(CCCl)CCCl)cc1)C2
true (1)
